Where do the numbers come from? From paper PMC8910447.

assay: in vitro; settings: human
attribute measured: CC50

Ask: Please give measured CC50 of the following entry: Oc1cc(O)c2c(c1)O[C@H](c1ccc(O)c(O)c1)[C@H](O)[C@H]2c1c(O)cc(O)c2c1O[C@H](c1ccc(O)c(O)c1)[C@H](O)C2 [Procyanidin B2 (1), procyanidin B2]
Result: > 86.5 µM

Ask: Kindly indicate its recorded CC50. Item: Oc1cc(O)c2c(c1)O[C@H](c1ccc(O)c(O)c1)[C@H](O)[C@H]2c1c(O)cc(O)c2c1O[C@H](c1ccc(O)c(O)c1)[C@H](O)[C@H]2c1c(O)cc(O)c2c1O[C@H](c1ccc(O)c(O)c1)[C@H](O)C2 [Procyanidin C1 (2), procyanidin C1]
Result: > 11.5 µM

Ask: Give the measured CC50 for Oc1cc(O)c2c(c1)O[C@H](c1ccc(O)c(O)c1)[C@H](O)C2 [(−) Epicatechin (5), (−)-epicatechin]
Result: > 172 µM

Ask: Input Oc1cc(O)c2c(c1)O[C@H](c1ccc(O)c(O)c1)[C@@H](O)C2 [(+) Catechin (4), (+)-catechin] , output reported CC50.
Result: > 34.5 µM

Ask: Consider the compound Oc1cc(O)c2c(c1)O[C@H](c1ccc(O)c(O)c1)[C@@H](O)[C@@H]2c1c(O)cc(O)c2c1O[C@H](c1ccc(O)c(O)c1)[C@@H](O)C2 [Procyanidin B3 (7), Procyanidin B3] and give its recorded CC50.
Result: > 86.5 µM

Ask: Supply CC50 value. Item: Oc1cc(O)c2c(c1)O[C@H](c1cc(O)c(O)c(O)c1)[C@@H](O)C2 [Gallocatechin (10), gallocatechin]
Result: > 163 µM

Ask: Please report the measured CC50 for Oc1cc(O)c2c(c1)OC(c1ccc(O)c(O)c1)C(O)C2c1c(O)cc(O)c2c1OC(c1ccc(O)c(O)c1)C(O)C2c1c(O)cc(O)c2c1OC(c1ccc(O)c(O)c1)C(O)C2c1c(O)cc(O)c2c1OC(c1ccc(O)c(O)c1)C(O)C2 (stereo not drawn) [Procyanidin tetramer (3)]
Result: > 11.5 µM

Ask: Specify CC50 for O=C(O[C@@H]1Cc2c(O)cc(O)cc2O[C@@H]1c1cc(O)c(O)c(O)c1)c1cc(O)c(O)c(O)c1 [EGCG (8), (−)-epigallocatechin-3-O-gallate] and stop.
Result: > 21.8 µM

Ask: Could you please provide reported CC50 for O=C(O[C@@H]1Cc2c(O)cc(O)cc2O[C@@H]1c1ccc(O)c(O)c1)c1cc(O)c(O)c(O)c1 [ECG (9), epicatechin 3-O-gallate] ? Thanks!
Result: > 22.6 µM

Ask: Output measured CC50 for this item: Oc1cc(O)c2c(c1)O[C@H](c1cc(O)c(O)c(O)c1)[C@H](O)C2 [Epigallocatechin (11), epigallocatechin]
Result: > 163 µM

Ask: Check the records and state CC50 for Oc1cc(O)c2c(c1)O[C@H](c1ccc(O)c(O)c1)[C@H](O)[C@H]2c1c(O)cc(O)c2c1O[C@H](c1ccc(O)c(O)c1)[C@@H](O)C2 [Procyanidin B1 (6), Procyanidin B1]
Result: > 86.5 µM

Ask: Give the reported CC50 for this compound. CN(C)CCOc1ccc(/C(=C(/CCCl)c2ccccc2)c2ccccc2)cc1 [Toremifene, toremifene, reference compound]
Result: 2.92 µM
